The reported measurements were obtained from ChEMBL document CHEMBL1132378.

Target: Adenosine receptor A1 (Rattus norvegicus, UniProt P25099)
Sequence (P25099 whole entry): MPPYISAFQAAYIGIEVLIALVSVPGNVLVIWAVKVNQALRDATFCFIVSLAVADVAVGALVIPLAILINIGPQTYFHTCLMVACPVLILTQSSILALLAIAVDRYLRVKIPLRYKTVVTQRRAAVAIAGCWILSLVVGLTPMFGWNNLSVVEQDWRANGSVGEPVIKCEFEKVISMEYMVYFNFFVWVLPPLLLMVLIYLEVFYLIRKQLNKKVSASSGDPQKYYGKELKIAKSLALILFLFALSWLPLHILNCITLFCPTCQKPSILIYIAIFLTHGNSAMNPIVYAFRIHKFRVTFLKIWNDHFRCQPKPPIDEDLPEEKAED
Assay: Enhanced 0.5 nM [3H]CCPA dissociation from adenosine A1 receptor of rat brain cortex membranes compared to 100 uM CPA
measuredMetric: EC50 (µM)

# count of solved cases: 3
Nc1sc2c(c1C(=O)c1cccc(C(F)(F)F)c1)CCCC2; 6
Nc1sc2c(c1C(=O)c1ccc(C(F)(F)F)cc1)CCCC2; 4.7
Nc1sc2c(c1C(=O)c1ccc(Cl)cc1)CCN(Cc1ccc(Cl)c(Cl)c1)C2; 32

a: Nc1sc2c(c1C(=O)c1ccc(I)cc1)CCCC2
b: Nc1sc2c(c1C(=O)c1ccc(Br)cc1)CCCC2
c: Nc1sc2c(c1C(=O)c1ccc(Cl)c(Cl)c1)CCN(Cc1ccccc1)C2
d: Cc1ccc(C(=O)c2c(N)sc3c2CCCC3)cc1
List items by EC50 in falling order. Use the labels to give the requested order.
d, b, c, a

a: Cc1sc(N)c(C(=O)c2cccc(C(F)(F)F)c2)c1C
b: Nc1sc2c(c1C(=O)c1ccc(Cl)c(Cl)c1)CCCC2
// returns a or b , whichever has the lower EC50 API: response body contains the label of the selected item.
b
